compounds and their reported protection from apoptosis
Experiment: inhibitors of cytokine-induced beta cell apoptosis, primary screen, luminescence (AID 435005);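 further: 0% = cytokine-treated negative control wells and 100% = positive control rescue; higher means more ATP so stronger rescue from cytokine killing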
Conditions: INS-1E cytokine-induced death, ATP luminescence, 48 h; hits give high values; percent of positive-control rescue, neutral wells zero; concentration not given here
Screen size: about 300,000 compounds; about 2,400 (0.8%) were called active. This excerpt belongs to a sample that is enriched for actives.
measurement.name: protection from apoptosis (%)

[
  {
    "compound": "COc1ccc(C(=O)NCC2CCCCC2)cc1S(=O)(=O)N1CCCC1",
    "scale.unit": "%",
    "result.number": -0.303
  },
  {
    "compound": "COc1cccc(/C=N/Nc2cc(C)nc(-c3ccccc3O)n2)c1O",
    "scale.unit": "%",
    "result.number": 83.1
  },
  {
    "compound": "COc1ccc(/C=N/Nc2cc(N3CCOCC3)nc(C)n2)c(OC)c1",
    "scale.unit": "%",
    "result.number": -0.288
  },
  {
    "compound": "CCC(=O)/C(=C(/O)c1ccccc1)c1nc2ccccc2[nH]1",
    "scale.unit": "%",
    "result.number": -5.02
  },
  {
    "compound": "NS(=O)(=O)c1ccc2nc(NC(=O)C3=COCCO3)sc2c1",
    "scale.unit": "%",
    "result.number": -1.35
  },
  {
    "compound": "O=C(Nc1cccc(S(=O)(=O)NC2=NCCC2)c1)c1ccc(F)cc1F",
    "scale.unit": "%",
    "result.number": -5.38
  },
  {
    "compound": "CCC(CO)Oc1cc(NC(=O)c2cccc3ccccc23)c2ncn(C(C)C)c2c1 (stereo unspecified)",
    "scale.unit": "%",
    "result.number": 4.17
  },
  {
    "compound": "Cc1ccc(S(=O)(=O)Nc2nc(C)cc(N/N=C/c3ccc(O)cc3)n2)cc1",
    "scale.unit": "%",
    "result.number": -0.0503
  },
  {
    "compound": "Cc1ccc(-c2csc(NC(=O)C3=COCCO3)n2)cc1C",
    "scale.unit": "%",
    "result.number": 98.3
  },
  {
    "compound": "CCOC(=O)COc1ccc([N+](=O)[O-])cc1",
    "scale.unit": "%",
    "result.number": -8.02
  },
  {
    "compound": "O=C(/C(=C/c1cccc(Cl)c1)c1nc2ccccc2[nH]1)c1ccccc1",
    "scale.unit": "%",
    "result.number": 101
  }
]

###

Assay: inhibitors of cytokine-induced beta cell apoptosis, primary screen, luminescence (AID 435005);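 further: 0% = cytokine-treated negative control wells and 100% = positive control rescue; higher means more ATP so stronger rescue from cytokine killing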
Conditions: INS-1E cytokine-induced death, ATP luminescence, 48 h; hits give high values; percent of positive-control rescue, neutral wells zero; concentration not given here
Screen size: about 300,000 compounds; about 2,400 (0.8%) were called active. What follows is part of a selection rich in actives, with near analogues and random picks from the rest.
measurement.name: protection from apoptosis (%)

[
  {
    "molecule": "COc1cc(/C=N/Nc2nc3ccccc3s2)ccc1O",
    "measurement.name": "protection from apoptosis",
    "result.number": -9.44
  },
  {
    "molecule": "Cc1ccc(-c2nn(-c3ccccc3)cc2C(=O)NC2CCC(O)CC2)cc1 (stereo unspecified)",
    "measurement.name": "protection from apoptosis",
    "result.number": 1.53
  },
  {
    "molecule": "COc1ccccc1/C=N/Nc1nc(C)c(C(C)=O)s1",
    "measurement.name": "protection from apoptosis",
    "result.number": 1.33
  },
  {
    "molecule": "Cc1cc(N/N=C\\c2ccc(Br)cc2)nc(-n2nc(C)cc2C)n1",
    "measurement.name": "protection from apoptosis",
    "result.number": 101
  },
  {
    "molecule": "Cc1nc(Cl)cc(N/N=C/c2ccccc2)n1",
    "measurement.name": "protection from apoptosis",
    "result.number": 0.482
  },
  {
    "molecule": "COc1ccc(S(=O)(=O)Nc2ccc3oc(C)c(C(C)=O)c3c2)cc1",
    "measurement.name": "protection from apoptosis",
    "result.number": 87.4
  },
  {
    "molecule": "CC(=O)c1c(C)oc2ccc(NS(=O)(=O)c3ccccc3)cc12",
    "measurement.name": "protection from apoptosis",
    "result.number": -0.111
  },
  {
    "molecule": "O=C(c1cccnc1)N(c1cc2sc(=O)oc2c2ccccc12)S(=O)(=O)c1ccccc1",
    "measurement.name": "protection from apoptosis",
    "result.number": 81.4
  },
  {
    "molecule": "CC(=O)c1c(C)oc2ccc(NS(=O)(=O)c3ccc(C(=O)O)cc3)cc12",
    "measurement.name": "protection from apoptosis",
    "result.number": -1.56
  },
  {
    "molecule": "O=C(Nc1cn(-c2ccccc2)nc1-c1ccccc1)c1ccccc1",
    "measurement.name": "protection from apoptosis",
    "result.number": 2.47
  },
  {
    "molecule": "COc1cccc2c(N/N=C/c3ccco3)cc(C)nc12",
    "measurement.name": "protection from apoptosis",
    "result.number": 0.451
  }
]
